What glycan array binding signal (z-score) was measured for each of the following?
Target: Neu5Ac(a2-8)Neu5Ac
Assay: glycan array binding signal (z-score within array); higher = stronger binding
Settings: glycan notation: IUPAC condensed, linker removed
Shown is part of a subset that was picked to be rich in the strongest signals.
Just the number, please.

Q. Look up glycan array binding signal (z-score) of Ficolin B (Rattus norvegicus), P57756 (protein) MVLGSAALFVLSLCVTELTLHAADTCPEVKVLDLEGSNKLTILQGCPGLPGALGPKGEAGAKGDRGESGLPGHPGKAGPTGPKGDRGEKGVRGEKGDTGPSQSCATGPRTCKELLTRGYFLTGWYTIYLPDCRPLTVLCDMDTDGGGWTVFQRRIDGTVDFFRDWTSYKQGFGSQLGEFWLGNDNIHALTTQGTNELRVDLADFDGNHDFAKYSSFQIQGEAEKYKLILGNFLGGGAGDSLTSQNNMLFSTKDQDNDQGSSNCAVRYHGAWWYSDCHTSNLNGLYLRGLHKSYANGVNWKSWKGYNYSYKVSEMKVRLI and report it.
A. 3.73

Q. Please report glycan array binding signal (z-score) for the following binder: Gal 1 (Mus musculus), P16045 (protein) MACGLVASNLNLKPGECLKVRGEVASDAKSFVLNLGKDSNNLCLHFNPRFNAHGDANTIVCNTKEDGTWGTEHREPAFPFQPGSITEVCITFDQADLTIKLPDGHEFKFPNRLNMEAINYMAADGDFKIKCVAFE
A. -0.093

Q. Output measured glycan array binding signal (z-score) for this item: CTMLA2 (Anopheles gambiae), Q7Q7F8 (protein) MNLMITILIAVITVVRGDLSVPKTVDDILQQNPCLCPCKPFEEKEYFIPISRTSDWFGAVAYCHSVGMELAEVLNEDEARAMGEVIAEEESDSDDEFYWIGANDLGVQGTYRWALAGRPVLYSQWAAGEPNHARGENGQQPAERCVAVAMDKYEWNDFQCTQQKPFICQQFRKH
A. -0.246
